Measured values drawn from the supplement of paper PMC10567573 for this set.

B1: FUT8 (parent)
chain: YPSYKVREKIETVKYPTYPEAEK

# Variants of: B1
# procedureDetails: protein stability index of a GFP-peptide fusion (GPS, HEK-293T) (PSI 1-6); higher = more stable;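 also: lentivirally expressed fusions sorted by FACS into six bins by GFP to DsRed ratio, PSI derived from sequencing read proportions per bin multiplied by bin number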
# assayContext: c terminus: native
Exercise: for every item that follows, state its recorded protein stability index.
One number for each entry.

Worked cases, answers included:
YPSYWVREKIETVKYPTYPEAEK
2.49
YPSWKVREKIETVKYPTYPEAEK
3.66
YPSYKVREKIETVKYPTYPEKEK
3.26
YPSYKVHEKIETVKYPTYPEAEK
3.84

Here is the next item to consider.
Record YPWYKVREKIETVKYPTYPEAEK , field protein stability index: 3.02
